src = ChEMBL document CHEMBL1127646

- measured-on: Prothrombin (Bos taurus)
- test-protocol: Inhibition of bovine thrombin (inhibitor concentration 1.2-54 uM)
measured-property: K obs / 1 (M⁻¹ s⁻¹)
Hi! Could you send only the number? It should be in M⁻¹ s⁻¹, unit omitted.

Query: Hello, please tell me recorded K obs / 1 for this one: `C[C@@H](NC(=O)Nc1ccc2c(Cl)c(OCCSC(=N)N)oc(=O)c2c1)c1ccccc1`
Response: 29500

Query: Quick one: give measured K obs / 1 for `N=C(N)SCCOc1oc(=O)c2cc(NC(=O)[C@H](N)Cc3ccccc3)ccc2c1Cl`
Response: 1280

Query: Report measured K obs / 1; entry is `N=C(N)SCCCOc1oc(=O)c2cc(NC(=O)CCc3ccccc3)ccc2c1Cl`
Response: 820

Query: Indicate its recorded K obs / 1; the compound in question is `N=C(N)SCCOc1oc(=O)c2cc(NC(=O)NCc3ccccc3)ccc2c1Cl`
Response: 16800

Query: Give the reported value of K obs / 1 for this record: `N=C(N)SCCCOc1oc(=O)c2cc(NC(=O)[C@H](N)Cc3ccccc3)ccc2c1Cl`
Response: 400

Query: Read the entry `C[C@H](NC(=O)OC(C)(C)C)C(=O)N[C@@H](C)C(=O)Nc1ccc2c(Cl)c(OCCSC(=N)N)oc(=O)c2c1` and write its reported K obs / 1.
Response: 1530

Query: Write down K obs / 1 measured for item `N=C(N)SCCOc1oc(=O)c2cc(NC(=O)Cc3ccccc3)ccc2c1Cl`
Response: 15800

Query: Please report K obs / 1 for the following compound: `N=C(N)SCCOc1oc(=O)c2cc(NC(=O)[C@@H](N)Cc3ccccc3)ccc2c1Cl`
Response: 4240

Query: Provide only the value of recorded K obs / 1 for `N=C(N)SCCOc1oc(=O)c2cc(NC(=O)Nc3cccc4ccccc34)ccc2c1Cl`
Response: 17500

###

- measured-on: Coagulation factor VII (Homo sapiens)
- Sequence (whole entry): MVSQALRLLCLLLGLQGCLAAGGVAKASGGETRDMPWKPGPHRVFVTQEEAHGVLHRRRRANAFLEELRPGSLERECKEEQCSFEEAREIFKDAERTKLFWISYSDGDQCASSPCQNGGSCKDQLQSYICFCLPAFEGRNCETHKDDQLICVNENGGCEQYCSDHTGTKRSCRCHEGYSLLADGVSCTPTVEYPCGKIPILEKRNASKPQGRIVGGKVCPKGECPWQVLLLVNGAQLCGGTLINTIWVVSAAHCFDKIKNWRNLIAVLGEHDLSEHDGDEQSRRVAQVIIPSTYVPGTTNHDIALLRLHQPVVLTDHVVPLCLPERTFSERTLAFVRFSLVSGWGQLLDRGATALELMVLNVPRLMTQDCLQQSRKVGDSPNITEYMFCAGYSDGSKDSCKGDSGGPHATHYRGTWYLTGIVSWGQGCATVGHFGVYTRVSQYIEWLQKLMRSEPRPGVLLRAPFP
- test-protocol: Inhibition of human coagulation factor VII at 7.2-44 uM
Use yes (1) when the recorded K obs / 1 is no lower than 2000 M⁻¹ s⁻¹; use no (0) when it is lower.

Query: hey, is K obs / 1 for this one >= 2000 M⁻¹ s⁻¹? `N=C(N)SCCCOc1oc(=O)c2ccccc2c1Cl`
Response: no (0)

Query: Given `N=C(N)SCCCOc1oc(=O)c2cc(NC(=O)Cc3ccccc3)ccc2c1Cl` , state whether its K obs / 1 is at least 2000 M⁻¹ s⁻¹.
Response: no (0)

Query: Please tell me: is the molecule `C[C@H](NC(=O)Nc1ccc2c(Cl)c(OCCSC(=N)N)oc(=O)c2c1)c1ccccc1` at or over 2000 M⁻¹ s⁻¹ in terms of K obs / 1?
Response: no (0)

Query: Test whether the molecule `N=C(N)SCCOc1oc(=O)c2cc(NC(=O)NCc3ccccc3)ccc2c1Cl` records K obs / 1 of 2000 M⁻¹ s⁻¹ or higher.
Response: no (0)

Query: Dear colleague, could you confirm whether `N=C(N)SCCOc1oc(=O)c2cc(NC(=O)[C@H](N)Cc3ccccc3)ccc2c1Cl` has K obs / 1 at or above 2000 M⁻¹ s⁻¹?
Response: yes (1)
